- System: NCI-H647
- procedureSummary: relative viability (nuclei count vs DMSO), 5 days (fraction); higher = more cells survive
- experimentalSetup: first compound 0.8 µM
valueKind: relative viability

compound	valueKind	result
Nc1cccc2c1CN(C1CCC(=O)NC1=O)C2=O (stereo unspecified) [Lenalidomide] + CC(C)C[C@H](NC(=O)[C@H](Cc1ccccc1)NC(=O)c1cnccn1)B(O)O [Bortezomib] (partner 0.002 µM)	relative viability	0.9
Nc1cccc2c1CN(C1CCC(=O)NC1=O)C2=O (stereo unspecified) [Lenalidomide] + O=C(CCCCCCC(=O)Nc1ccccc1)NO [Vorinostat] (partner 1 µM)	relative viability	0.68
Nc1cccc2c1CN(C1CCC(=O)NC1=O)C2=O (stereo unspecified) [Lenalidomide] + CC1(C)CCC(c2ccc(Cl)cc2)=C(CN2CCN(c3ccc(C(=O)NS(=O)(=O)c4ccc(N[C@H](CCN5CCOCC5)CSc5ccccc5)c(S(=O)(=O)C(F)(F)F)c4)cc3)CC2)C1 [Navitoclax] (partner 0.5 µM)	relative viability	1.11
Nc1cccc2c1CN(C1CCC(=O)NC1=O)C2=O (stereo unspecified) [Lenalidomide] + CCNC(=O)c1noc(-c2cc(C(C)C)c(O)cc2O)c1-c1ccc(CN2CCOCC2)cc1 [Luminespib] (partner 0.01 µM)	relative viability	0.284
Nc1cccc2c1CN(C1CCC(=O)NC1=O)C2=O (stereo unspecified) [Lenalidomide] + N=C(N)NC(=N)NCCc1ccccc1 [Phenformin] (partner 250 µM)	relative viability	0.487
Nc1cccc2c1CN(C1CCC(=O)NC1=O)C2=O (stereo unspecified) [Lenalidomide] + COc1cccc2cc(-c3nc([C@H]4CC[C@H](C(=O)O)CC4)n4ncnc(N)c34)[nH]c12 [OSI-027] (partner 0.5 µM)	relative viability	0.551
